target: rat NMB receptor (Rattus norvegicus); construct: a full length NMB-preferring bombesin receptor clone generated from rat esophagus; expressed in transfected cells; experiment: Binding of 125I-[D-Tyr0]NMB to NMB-R transfected BALB 3T3 cells; settings: NMB-R transfected cells; value or range given for a group; read-out: K1, 125I-NMB binding to NMB-R transfected cells (text)
Sequence (P24053 whole entry): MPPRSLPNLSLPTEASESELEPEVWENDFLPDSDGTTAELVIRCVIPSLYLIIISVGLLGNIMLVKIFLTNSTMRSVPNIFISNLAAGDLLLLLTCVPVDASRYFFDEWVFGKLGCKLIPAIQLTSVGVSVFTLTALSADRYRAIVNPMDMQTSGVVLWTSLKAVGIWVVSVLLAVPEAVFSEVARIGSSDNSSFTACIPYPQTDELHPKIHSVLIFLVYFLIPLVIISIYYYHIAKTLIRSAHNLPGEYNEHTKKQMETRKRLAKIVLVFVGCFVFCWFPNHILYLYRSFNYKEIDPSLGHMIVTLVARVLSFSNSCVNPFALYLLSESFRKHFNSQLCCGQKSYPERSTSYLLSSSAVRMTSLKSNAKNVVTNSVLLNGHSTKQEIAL
Where a SMILES comes first, the peptide text is derived from it. Bridges are numbered along the chain shown (N, C = ends). [ ]: non-standard residue; d: D form. 2Nal = N[C@@H](Cc1ccc2ccccc2c1)C(=O)O; d2Nal = N[C@H](Cc1ccc2ccccc2c1)C(=O)O; Lys(Et2) = CCN(CC)CCCC[C@H](N)C(=O)O; Lys(iPr) = CC(C)NCCCC[C@H](N)C(=O)O
quantity_name: Ki

Take a look at these entries with their results.
| compound | Ki |
| --- | --- |
| C[C@@H](O)[C@@H]1NC(=O)[C@H](CCCCN)NC(=O)[C@@H](Cc2c[nH]c3ccccc23)NC(=O)[C@H](Cc2ccc(O)cc2)NC(=O)[C@@H](NC(=O)[C@H](N)Cc2ccccc2)CSSC[C@@H](C(=O)N[C@@H](Cc2ccc3ccccc3c2)C(N)=O)NC1=O [Analog #7] (H-[dF]CY[dW]KTC[2Nal]-NH2; disulfide 2-7) | 3.9 to 4.4 µM |
| C[C@@H](O)[C@H](NC(=O)[C@@H]1CSSC[C@H](NC(=O)[C@H](N)Cc2ccc3ccccc3c2)C(=O)N[C@@H](Cc2ccc(O)cc2)C(=O)N[C@H](Cc2c[nH]c3ccccc23)C(=O)N[C@@H](CCCCN)C(=O)N[C@@H]([C@@H](C)O)C(=O)N1)C(N)=O | 14 to 19 µM |
| CC(C)[C@@H]1NC(=O)[C@H](CCCCN)NC(=O)[C@@H](Cc2c[nH]c3ccccc23)NC(=O)[C@H](Cc2ccc(O)cc2)NC(=O)[C@@H](NC(=O)[C@H](N)Cc2ccc3ccccc3c2)CSSC[C@@H](C(=O)N[C@H](Cc2ccc3ccccc3c2)C(N)=O)NC1=O [Analog #8] (H-[d2Nal]CY[dW]KVC[d2Nal]-NH2; disulfide 2-7) | 1.4 to 2.3 µM |
| CCN(CC)CCCC[C@@H]1NC(=O)[C@@H](Cc2c[nH]c3ccccc23)NC(=O)[C@H](Cc2ccc(O)cc2)NC(=O)[C@@H](NC(=O)[C@H](N)Cc2ccccc2)CSSC[C@@H](C(=O)N[C@@H](Cc2ccc3ccccc3c2)C(N)=O)NC(=O)[C@H]([C@@H](C)O)NC1=O [Analog #16] (H-[dF]CY[dW][Lys(Et2)]TC[2Nal]-NH2; disulfide 2-7) | 3.9 to 4.4 µM |
| CC(C)[C@@H]1NC(=O)[C@H](CCCCN)NC(=O)[C@@H](Cc2c[nH]c3ccccc23)NC(=O)[C@H](Cc2ccc3ccccc3c2)NC(=O)[C@@H](NC(=O)[C@H](N)Cc2ccccc2)CSSC[C@@H](C(=O)N[C@H](C(N)=O)[C@@H](C)O)NC1=O [Analog #18] (H-[dF]C[2Nal][dW]KVCT-NH2; disulfide 2-7) | 14 to 19 µM |
| CC(C)[C@@H]1NC(=O)[C@H](CCCCN)NC(=O)[C@@H](Cc2c[nH]c3ccccc23)NC(=O)[C@H](Cc2ccc(O)cc2)NC(=O)[C@@H](NC(=O)[C@H](N)Cc2c[nH]c3ccccc23)CSSC[C@@H](C(=O)N[C@@H](Cc2ccc3ccccc3c2)C(N)=O)NC1=O [Analog #12] (H-[dW]CY[dW]KVC[2Nal]-NH2; disulfide 2-7) | 1.4 to 2.3 µM |

So what's the measured Ki for this one? CC(C)NCCCC[C@@H]1NC(=O)[C@@H](Cc2c[nH]c3ccccc23)NC(=O)[C@H](Cc2ccc(O)cc2)NC(=O)[C@@H](NC(=O)[C@H](N)Cc2ccccc2)CSSC[C@@H](C(=O)N[C@@H](Cc2ccc3ccccc3c2)C(N)=O)NC(=O)[C@H]([C@@H](C)O)NC1=O [Analog #15] (H-[dF]CY[dW][Lys(iPr)]TC[2Nal]-NH2; disulfide 2-7)
1.4 to 2.3 µM
